biological target: human platelet phospholipase A2 (Homo sapiens); construct: a preparation of human platelet phospholipase A2; from tissue; host or cells: human platelets; assay: Inhibition of human platelet phospholipase A2 (14C-oleate E. coli substrate); format: biochemical; conditions: read-out: Inhibition of PLA2, % Inhibition @ 50 μM
Each record's class is read off its inhibition at 50 µM using these ranges: 1: < 50%; 2: ≥ 50% and < 90%; 3: ≥ 90%

{"columns": ["molecule", "discrete.label"],
 "data": [
  ["CC(C)=CCC/C(C)=C/CSc1ccc(C2=CC(=O)OC2O)cc1 (stereo not drawn)", 2],
  ["CCCCC/C=C\\C/C=C\\CCCCCCCCOc1cccc(C2=CC(=O)OC2O)c1 (stereo not drawn)", 3],
  ["O=C1C=C(c2ccc(/C=C/CCc3ccccc3)cc2)C(O)O1 (stereo not drawn)", 2],
  ["CC1=C(C/C=C(\\C)COc2ccc(C3=CC(=O)OC3O)cc2)C(C)(C)CCC1 (stereo not drawn)", 3],
  ["O=C1C=C(c2ccc(OCCCCCCOc3ccc4ccccc4c3)cc2)C(O)O1 (stereo not drawn)", 2],
  ["CC1=C(C/C=C(\\C)COc2ccc(SC3=CC(=O)OC3O)cc2)C(C)(C)CCC1 (stereo not drawn)", 3]
]}

Now for another entry.
Query: Sort into band: COc1ccc(C#Cc2ccc(C3=CC(=O)OC3O)cc2)cc1 (stereo not drawn)
Response: 1

---

test system: TPA-induced inflammation in the mouse ear; assay: Topical anti-inflammatory activity: TPA-induced inflammation (edema) in the mouse ear; type: in vivo, mouse (male CD-1); details: Mus musculus, @ 100 μg, 5-6 h after TPA
measured.parameter: inhibition in vivo at 100 µg/ear (%)
Value expressed in %; do not type the unit.

Example entries begin here.
{"columns": ["compound", "inhibition in vivo at 100 µg/ear / %"],
 "data": [
  ["CC(C)=CCC/C(C)=C/CSc1ccc(C2=CC(=O)OC2O)cc1 (centres unmarked)", 56],
  ["C=CCCCCCCCCC(=O)c1ccc(C2=CC(=O)OC2O)cc1 (centres unmarked)", 0],
  ["O=C1C=C(c2ccc(C#Cc3ccccc3)cc2)C(O)O1 (centres unmarked)", 79],
  ["O=C1C=C(c2ccc(/C=C/c3ccccc3)cc2)C(O)O1 (single isomer, unassigned)", 33],
  ["O=C1C=C(c2ccc(OCCOc3ccc4ccccc4c3)cc2)C(O)O1 (centres unmarked)", 45],
  ["O=C1C=C(c2ccc(/C=C/CCc3ccccc3)cc2)C(O)O1 (centres unmarked)", 37]
]}

inhibition in vivo at 100 µg/ear reading for O=C1C=C(c2cccc(Oc3ccccc3)c2)C(O)O1 (centres unmarked) : 52

Reported inhibition in vivo at 100 µg/ear ( CC1=C(C/C=C(\C)COc2cccc(C3=CC(=O)OC3O)c2)C(C)(C)CCC1 (centres unmarked) ) = 51

---

target: human platelet phospholipase A2 (Homo sapiens, UniProt P14555)
Sequence (P14555 21-144): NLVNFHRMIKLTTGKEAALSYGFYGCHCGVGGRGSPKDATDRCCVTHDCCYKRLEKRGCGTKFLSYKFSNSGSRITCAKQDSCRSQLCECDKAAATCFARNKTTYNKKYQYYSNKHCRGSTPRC
pIC50: −log10 of the molar value.
Threshold rule: pIC50 greater than or equal to 5 is 1 (yes); below that, 0 (no).

Look over these answered cases.
{"columns": ["molecule", "discrete.label"],
 "data": [
  ["O=C1C=C(c2ccc(COc3ccc4ccccc4c3)cc2)C(O)O1 (stereo not drawn)", "0 (no)"],
  ["C=CC(CCCCC)Oc1ccc(C2=CC(=O)OC2O)cc1 (stereo not drawn)", "0 (no)"],
  ["O=C1C=C(c2ccc(C(=O)c3ccc4ccccc4c3)cc2)C(O)O1 (stereo not drawn)", "0 (no)"],
  ["O=C1C=C(c2ccc(/C=C/CCc3ccccc3)cc2)C(O)O1 (stereo not drawn)", "0 (no)"],
  ["CC1=C(CCC(C)Oc2ccc(C3=CC(=O)OC3O)cc2)C(C)(C)CCC1 (stereo not drawn)", "0 (no)"],
  ["CCCCCCCCOc1ccc(SC2=CC(=O)OC2O)cc1 (stereo not drawn)", "1 (yes)"]
]}

Query: Given the entry CCCCC/C=C\C/C=C\CCCCCCCCOc1cccc(C2=CC(=O)OC2O)c1 (stereo not drawn) , answer whether its pIC50 meets or surpasses 5.
Response: 1 (yes)

Query: Item CCCCCC/C=C/c1ccc(C2=CC(=O)OC2O)cc1 (stereo not drawn) with pIC50 of 5 or above?
Response: 1 (yes)
